test system: S. aureus; test: Minimum inhibitory concentrations (MICs) for S. aureus of exemplary compounds (Table 2); assay type: cell-based; conditions: Staphylococcus aureus, minimum inhibitory concentrations for S. aureus; read-out: MICs
recorded.endpoint: MIC

Guide cases for MIC, answers given:
CC(=O)NC[C@H]1CN(c2ccc(-c3ccc(CNC(C(N)=O)c4cccnc4)cc3)c(F)c2)C(=O)O1 (stereo partly shown): 4 µg/mL
CC(=O)NC[C@H]1CN(c2ccc(-c3ccc(CSCc4ccncc4)cc3)c(F)c2)C(=O)O1: 0.25 µg/mL
CC(=O)NC[C@H]1CN(c2ccc(-c3ccc(CNOCc4ccccc4)cc3)c(F)c2)C(=O)O1: 2 µg/mL

For the next question, use this compound.
Exam item: # get_value(readout='MIC', item= CC(=O)NC[C@H]1CN(c2ccc(-c3ccc(CNC(=O)/C=C/c4cccnc4)cc3)c(F)c2)C(=O)O1 )
Marked response: 4 µg/mL

====

test system: S. aureus; assay: Minimum inhibitory concentrations (MICs) for S. aureus of exemplary compounds (Table 2); assay type: cell-based; conditions: Staphylococcus aureus, minimum inhibitory concentrations for S. aureus; read-out: MICs
Below, each entry is listed alongside its reported MIC.

Example entries and their recorded answers appear below.
CC(=O)NC[C@H]1CN(c2ccc(-c3ccc([C@@H](O)CNCc4ccncc4)cc3)c(F)c2)C(=O)O1 [Compound 4201]: 2 mg/L
CC(=O)NC[C@H]1CN(c2ccc(-c3ccc(CN4CCN(CC#N)CC4)cc3)c(F)c2)C(=O)O1 [Compound 1004]: 2 mg/L
CC(=O)NC[C@H]1CN(c2ccc(-c3ccc(CN[C@H]4CCCNC4=O)cc3)c(F)c2)C(=O)O1 [Compound 2059]: 2 mg/L

Exam item: Request the reported MIC associated with CC(=O)NC[C@H]1CN(c2ccc(-c3ccc(CNC[C@H](O)CSc4nnc[nH]4)cc3)c(F)c2)C(=O)O1 [Compound 5011]
Marked response: 4 mg/L

Exam item: Param item = CC(=O)NC[C@H]1CN(c2ccc(-c3ccc(CNCc4cnco4)cc3)c(F)c2)C(=O)O1 [Compound 4208] ; retrieve measured MIC.
Marked response: 1 mg/L

Exam item: Value lookup for MIC; key = CC(=O)NC[C@H]1CN(c2ccc(-c3ccc(Cn4cnc5c(NCCF)ncnc54)cc3)c(F)c2)C(=O)O1 [Compound 1102]
Marked response: 1 mg/L

Exam item: // MIC lookup, key: CC(=O)NC[C@H]1CN(c2ccc(-c3ccc(CNCc4cc(Br)no4)cc3)c(F)c2)C(=O)O1 [Compound 4253]
Marked response: 0.5 mg/L

====

type: physicochemical; conditions: radezolid salt forms in HPLC grade water, ambient temperature
Where a name gives a salt, the structure may show the parent alone.
Each entry below carries its recorded solubility.

Exam item: Find the recorded solubility belonging to CC(=O)NC[C@H]1CN(c2ccc(-c3ccc(CNCc4cnn[nH]4)cc3)c(F)c2)C(=O)O1 [Benzoate] and report it.
Marked response: <30 µg/mL

Exam item: What value of solubility has been recorded for this entry: CC(=O)NC[C@H]1CN(c2ccc(-c3ccc(CNCc4cnn[nH]4)cc3)c(F)c2)C(=O)O1 [Hydrochloride]
Marked response: <30 µg/mL

Exam item: I have this molecule here, CC(=O)NC[C@H]1CN(c2ccc(-c3ccc(CNCc4cnn[nH]4)cc3)c(F)c2)C(=O)O1 [Succinate] , and I need its recorded solubility.
Marked response: <30 µg/mL

Exam item: Which measured solubility value corresponds to CC(=O)NC[C@H]1CN(c2ccc(-c3ccc(CNCc4cnn[nH]4)cc3)c(F)c2)C(=O)O1 [Lactate] ?
Marked response: <20 µg/mL

Exam item: Field request: solubility | item: CC(=O)NC[C@H]1CN(c2ccc(-c3ccc(CNCc4cnn[nH]4)cc3)c(F)c2)C(=O)O1 [Acetate]
Marked response: <20 µg/mL

Exam item: Request the reported solubility associated with CC(=O)NC[C@H]1CN(c2ccc(-c3ccc(CNCc4cnn[nH]4)cc3)c(F)c2)C(=O)O1 [Salicylate]
Marked response: <30 µg/mL
